system: U251 CNS; experiment: NCI tumour cell line growth inhibition, 48 h
endpoint: TGI

Record `CC(C)(C)n1cc(-c2ccnc(NCCNS(=O)(=O)c3ccc(Br)cc3)c2)c(-c2cccc(O)c2)n1` . Reported TGI: 3.29 µM

Record `CCOC(=O)c1c2c(n(C)c1-c1ccccc1)C(=O)C(C)=CC2=O` . Reported TGI: 22.8 µM

Record `CCCCN(CCCC)C(=NCc1ccccc1)NC#N` . Reported TGI: 35.7 µM

Record `COc1cccc(-c2nn(-c3ccccc3)cc2-c2ccnc(NCCNC(=O)Nc3ccc(Cl)c(Cl)c3)c2)c1` . Reported TGI: 7.73 µM

Record COc1cc(C(c2cc3c(cc2O)OCO3)N2CCCC2)cc(OC)c1OC (stereo not drawn) . Reported TGI: 37.8 µM

Record `O=C1C/C(=C\O)C(=O)c2ccccc2N1` . Reported TGI: > 100 µM

Record CCC1OCCN1C(C)C (stereo not drawn) . Reported TGI: > 100 µM

Record `c1ccc2c3c(ccc2c1)CSCc1ccc2ccccc2c1-3` . Reported TGI: > 100 µM

Record `COc1c(O)c(OC)c(C(=O)/C=C/c2ccccc2)c(O)c1OC` . Reported TGI: > 100 µM

Record `Oc1ccc(-c2c3c(nc4c2CCc2ccc(Br)cc2-4)-c2cc(Br)ccc2CC3)cc1` . Reported TGI: 34.2 µM

Record `O=[N+]([O-])c1ccc2nc3ccc([N+](=O)[O-])cn3c2c1` . Reported TGI: > 100 µM

Record CC(C)=CC(=O)O[C@@H]1CC(C)(C)CC2C3=CCC4[C@]56CC[C@](O)(OC5)C(C)(C)C6CC[C@@]4(C)C3(C)CC[C@]21C(=O)O (stereo partly drawn) . Reported TGI: > 100 µM

Record `Cc1c(C(C)C)cc(OCCO)cc1C(C)C` . Reported TGI: > 100 µM

Record `Oc1c2cccc1Cc1cccc3c1OCCOCCOCCOCCOc1c(cccc1Cc1cccc(c1O)C3)C2` . Reported TGI: > 100 µM

Record `COc1ccc(CNc2nc(NCc3ccc(OC)cc3)nc(NC3CCCCC3)n2)cc1` . Reported TGI: > 100 µM

Record `C/C(=N\NS(=O)(=O)c1ccc(C)cc1)c1ccc[n+]([O-])n1` . Reported TGI: > 100 µM

Record `COc1cn2c(cc1=O)COc1ccc(-c3ccccc3)cc1-2` . Reported TGI: > 100 µM

Record `CC1=CC2=C(C)C3(CC3)[C@@](C)(O)C(=O)C2=C1` . Reported TGI: 0.507 µM

Record CCOC(=O)/C=C1\Nc2ccccc2C12CCc1c([nH]c3ccccc13)C2C(=O)OCC (stereo not drawn) . Reported TGI: > 100 µM

Record CC1OC(=O)N(CCCC=C2SCCCS2)C1=O (stereo not drawn) . Reported TGI: > 100 µM

Record Cc1cnc(Cl)nc1C(C#N)c1nc2ccccc2n1C (stereo not drawn) . Reported TGI: 45.5 µM

Record `COc1ccc2cccc(C(=N)c3ccc(C)c4c3CCC4)c2c1` . Reported TGI: 21.4 µM

Record `CCCCCCCCCCCCCCCC[N+]1(CC)CCCC1` . Reported TGI: 1.35 µM

Record COc1cc(C2SCC(=O)N2NC(=O)c2ccc(NC(C)=O)cc2)cc(OC)c1OC (stereo not drawn) . Reported TGI: > 100 µM

Record O=C1c2cc([N+](=O)[O-])ccc2NC2C(O)c3ccccc3N12 (stereo not drawn) . Reported TGI: > 100 µM

Record C/C(=N\N(C)C)C(CN(C)C)C(c1ccccc1)c1c(O)c2ccccc2oc1=O (stereo not drawn) . Reported TGI: > 100 µM

Record Cc1nn(-c2ccccc2)c2c1C1C(=C(c3ccc(Cl)cc3)N2)C(=O)Nc2ccccc21 (stereo not drawn) . Reported TGI: 12.3 µM

Record `O=c1c(Cc2ccc(Cl)cc2)nnc2sc(-c3ccc([N+](=O)[O-])cc3)nn12` . Reported TGI: > 100 µM

Cited source: PubChem BioAssay (NCI)
